- Experimental Context: in toluene, 283.15 K
Assay Metric: solubility (mole fraction)
Keep the answer to the number alone.

Problem: Determine from records and report solubility (mole fraction) for COc1ccc(C(=O)O)cc1
Result: 0.00062

====

- Experimental Context: in n-butyl acetate, 303.15 K
Assay Metric: solubility (mole fraction)
Could you respond with only the numeric value?

Problem: Query solubility (mole fraction) for COc1ccc(C(=O)O)cc1
Result: 0.0118

====

- Experimental Context: in isobutanol, 308.15 K
Assay Metric: solubility (mole fraction)
Lab note: jot down the number only; don't add units.

Problem: Return reported solubility (mole fraction). Input compound: COc1ccc(C(=O)O)cc1
Result: 0.0143
